# System: Mus musculus
# ASSAY_NOTES: The ratio of the survival time of treated to control animals x 100 in mice bearing B16 Melanoma, when compound (50 mg/kg) was administered intraperitoneally
# Type: functional
Hi there, I'd appreciate the recorded Activity for every entry that follows.
One number for each entry.

SMILES_NOTATION: O=C1C(N2CC2)=C(N2CC2)C(=O)c2c(OS(=O)(=O)c3cccs3)cccc21
MEASURED_ENDPOINT: Activity
REPORTED_MEASUREMENT: 156
--
SMILES_NOTATION: COc1ccc(S(=O)(=O)Oc2cccc3c2C(=O)C(N2CC2)=C(N2CC2)C3=O)cc1
MEASURED_ENDPOINT: Activity
REPORTED_MEASUREMENT: 132

Batch lookup, Activity per entry.
1. O=C1C(N2CC2)=C(N2CC2)C(=O)c2c(OS(=O)(=O)c3ccccc3)cccc21
2. O=C1C(N2CC2)=C(N2CC2)C(=O)c2c(OS(=O)(=O)c3cccc4cccnc34)cccc21
3. O=C1C(N2CC2)=C(N2CC2)C(=O)c2c(OS(=O)(=O)c3ccc(Br)cc3)cccc21
4. O=C1C(N2CC2)=C(N2CC2)C(=O)c2c(OS(=O)(=O)c3ccc(Cl)cc3)cccc21

stdout:
1: 156; 2: 195; 3: 143; 4: 143

###

Hi there, I'd appreciate the recorded Survivals for every entry that follows.
# System: Mus musculus
# ASSAY_NOTES: Number of mice survived for a period greater than 50 days when a dose of 20 mg/Kg is administered intraperitoneally; tested in 5 mice
# Assay type: functional
Numbers only.

MOLECULE: COc1ccc(S(=O)(=O)Oc2cccc3c2C(=O)C(N2CC2)=C(N2CC2)C3=O)cc1
TEST_SYSTEM: Mus musculus
Survivals: 0

Batch lookup, Survivals per entry.
1. Cc1cc(C)c(S(=O)(=O)Oc2cccc3c2C(=O)C(N2CC2)=C(N2CC2)C3=O)c(C)c1
2. O=C1C(N2CC2)=C(N2CC2)C(=O)c2c(OS(=O)(=O)c3ccc(F)cc3)cccc21
3. O=C1C(N2CC2)=C(N2CC2)C(=O)c2c(OS(=O)(=O)c3cccc4ccccc34)cccc21
4. CC1(C)C2CCC1(CS(=O)(=O)Oc1cccc3c1C(=O)C(N1CC1)=C(N1CC1)C3=O)C(=O)C2 (centres undefined)
5. O=C1C(N2CC2)=C(N2CC2)C(=O)c2c(OS(=O)(=O)/C=C/c3ccccc3)cccc21
6. O=C1C(N2CC2)=C(N2CC2)C(=O)c2c(OS(=O)(=O)c3cccs3)cccc21

stdout:
0
5
0
0
0
4

Batch lookup, Survivals per entry.
1. CCCCS(=O)(=O)Oc1cccc2c1C(=O)C(N1CC1)=C(N1CC1)C2=O
2. O=C1C(N2CC2)=C(N2CC2)C(=O)c2c(OS(=O)(=O)Cc3ccccc3)cccc21
3. O=C1C(N2CC2)=C(N2CC2)C(=O)c2c(OS(=O)(=O)c3ccc(I)cc3)cccc21
4. CN(C)c1cccc2c(S(=O)(=O)Oc3cccc4c3C(=O)C(N3CC3)=C(N3CC3)C4=O)cccc12
5. CCCCCCCCCCCCCCCCS(=O)(=O)Oc1cccc2c1C(=O)C(N1CC1)=C(N1CC1)C2=O

stdout:
1. 0
2. 0
3. 0
4. 0
5. 0

###

# System: L1210
# ASSAY_NOTES: Number L1210 (murine leukemia) inoculated mice surviving for >50 days following 25 mg/kg i.p.
# Format: functional, Mus musculus
# RUN_CONDITIONS: route intraperitoneal
Hi there, I'd appreciate the recorded Survivals for every entry that follows.
Answers are plain numbers.

Sample records with Survivals:
MOLECULE: O=C1C(N2CC2)=C(N2CC2)C(=O)c2c(OS(=O)(=O)c3ccc(Br)cc3)cccc21
TEST_SYSTEM: L1210
REPORTED_MEASUREMENT: 0

MOLECULE: CC1(C)C2CCC1(CS(=O)(=O)Oc1cccc3c1C(=O)C(N1CC1)=C(N1CC1)C3=O)C(=O)C2 (stereo not given)
TEST_SYSTEM: L1210
REPORTED_MEASUREMENT: 0

MOLECULE: Cc1ccc(S(=O)(=O)Oc2cccc3c2C(=O)C=C(N2CC2)C3=O)cc1
TEST_SYSTEM: L1210
REPORTED_MEASUREMENT: 0

Batch lookup, Survivals per entry.
1. O=C1C(N2CC2)=C(N2CC2)C(=O)c2c(OS(=O)(=O)c3ccc([N+](=O)[O-])cc3)cccc21
2. O=C1C(N2CC2)=C(N2CC2)C(=O)c2c(OS(=O)(=O)c3ccc(F)cc3)cccc21

stdout:
3
4
